- Tested on: NCI-H460
- Assay remarks: NCI tumour cell line growth inhibition, 48 h
The source made the active and inactive calls. Cut-off read from the data, not from the text of the source: active = GI50 up to about 1.1 µM and inactive = higher.
Assay endpoint: GI50

Guide cases for GI50, answers given:
I would be grateful if you could share the reported GI50 for CCOC(=O)[C@]12C(=C(c3ccccc3)O[C@H]3C=CCC[C@H]31)C(=O)C(=O)N2c1ccccc1 .
> 100 µM (inactive)

I would be grateful if you could share the reported GI50 for CCOC(=O)NC(=O)c1cn(CCCOC(=O)CCCCCCCCCCC(=O)OCCCn2cc(C(=O)NC(=O)OCC)c(=O)[nH]c2=O)c(=O)[nH]c1=O .
> 100 µM (inactive)

For every record below, what is its GI50?
1. CC(C)CC1C(=O)NCCC(NC(=O)C(Cc2ccc(OC(C)(C)C)cc2)NC(=O)OC(C)(C)C)C(=O)NC(Cc2ccccc2)C(=O)NC(Cc2ccccc2)NC1=O (configuration not stated)
2. CC1(C)OC[C@H](C(=N)OCc2ccccc2)O1

["2.96 µM (inactive)", "> 100 µM (inactive)"]

For every record below, what is its GI50?
1. CCN1C/C(=C\c2ccc(Cl)cc2)c2nc(N)c(C#N)c(-c3ccc(Cl)cc3)c2C1
2. COc1ccc(C(SC2C(O)C(CO)OC2n2ccc(=O)[nH]c2=O)(c2ccccc2)c2ccc(OC)cc2)cc1 (configuration not stated)

["> 100 µM (inactive)", "10.9 µM (inactive)"]

I would be grateful if you could share the reported GI50 for CNC(=O)NS(=O)(=O)c1ccc(C)cc1.NS(=O)O .
> 100 µM (inactive)

Ref: ChEMBL document CHEMBL1201862
